# credit: ChEMBL document CHEMBL3045673

tested on: HepG2; test: Cytotoxicity against Homo sapiens (human) HepG2 cells by MTT assay; assay type: functional, cell-based
Calls of active or inactive are those of the source. The calls are words filed in the database; no cut-off is given here.
Outcomes you can answer with include only these: yes (1) (active), no (0) (inactive)

Status in this test for N#CC(=C1CCCCC1)c1nc2cc(Cl)ccc2o1 ?
yes (1)

Tell me the assay call for COc1cc(/C=C(\C#N)c2nc3cc(F)ccc3o2)cc(OC)c1OC please.
yes (1)

Name the outcome recorded for N#C/C(=N\Nc1ccc(Br)cc1)c1nc2cc(Cl)ccc2o1 in the assay.
yes (1)

Lab log entry: COc1cc(/C=C(\C#N)c2nc3cc(Cl)ccc3o2)cc(OC)c1OC — outcome as called in the assay?
yes (1)

Which outcome did this test record for the compound N#C/C(=C\c1ccccc1)c1nc2cc(Cl)ccc2o1 ?
no (0)

Entry COc1ccc(/C=C(\C#N)c2nc3cc(Cl)ccc3o2)cc1 : call = ?
yes (1)

How was N#C/C(=N\Nc1ccccc1)c1nc2cc(Cl)ccc2o1 classified in this test?
yes (1)

Fill in: this test's call for N#C/C(=C\c1ccc(O)cc1)c1nc2cc(Cl)ccc2o1 is ___
yes (1)

Hi, do you know how COc1ccc(N/N=C(\C#N)c2nc3cc(Cl)ccc3o2)cc1 came out in this test?
yes (1)

Per the records of this test, what outcome belongs to N#CC(=C1CCCC1)c1nc2cc(Cl)ccc2o1 ?
yes (1)

GET /call?item= N#C/C(=N\Nc1ccc(Cl)cc1)c1nc2cc(Cl)ccc2o1 returns the recorded outcome of this test.
no (0)

====

system: Aspergillus flavus; assay: Antifungal activity against Aspergillus flavus at 50 ug/ml after 48 hr by agar plate diffusion method; format: functional
Could you label it class 1 if measured inhibition at 50 µg/mL is 60% or higher, and class 0 otherwise?

Entry COc1cc(/C=C(\C#N)c2nc3cc(Cl)ccc3o2)cc(OC)c1OC : is its inhibition at 50 µg/mL no less than 60%?
class 1

Form field: inhibition at 50 µg/mL at least 60%? Entry: COc1cc(/C=C(\C#N)c2nc3cc(F)ccc3o2)cc(OC)c1OC
class 1

Decide: is the reported value of inhibition at 50 µg/mL for N#C/C(=N\Nc1ccc(Cl)cc1)c1nc2cc(Cl)ccc2o1 equal to or greater than 60%?
class 1

Item COc1ccc(/C=C(\C#N)c2nc3cc(Cl)ccc3o2)cc1 with inhibition at 50 µg/mL of 60% or above?
class 1

Given the entry COc1ccc(N/N=C(\C#N)c2nc3cc(Cl)ccc3o2)cc1 , answer whether its inhibition at 50 µg/mL meets or surpasses 60%.
class 0

inhibition at 50 µg/mL >= 60% for N#CC(=C1CCCCC1)c1nc2cc(Cl)ccc2o1 ?
class 1

====

I'd be grateful if you could share measured zone of inhibition at 10 µg/mL for these entries.
test system: Pseudomonas aeruginosa; test: Antibacterial activity against Pseudomonas aeruginosa at 10 ug/ml after 24 hr by disk diffusion method; type: functional; conditions: read-out: DIZ

Which measured zone of inhibition at 10 µg/mL value corresponds to COc1cc(/C=C(\C#N)c2nc3cc(F)ccc3o2)cc(OC)c1OC ?
20 mm

What value of zone of inhibition at 10 µg/mL has been reported for the following molecule? N#C/C(=N\Nc1ccccc1)c1nc2cc(Cl)ccc2o1
10 mm

// returns reported zone of inhibition at 10 µg/mL for input N#C/C(=C\c1ccc(O)cc1)c1nc2cc(Cl)ccc2o1
10 mm

zone of inhibition at 10 µg/mL lookup needed for N#C/C(=N\Nc1ccc(Cl)cc1)c1nc2cc(Cl)ccc2o1 , thanks.
10 mm

I am curious: what zone of inhibition at 10 µg/mL value has been reported for N#C/C(=C\c1ccccc1)c1nc2cc(Cl)ccc2o1 ?
10 mm

Name the reported zone of inhibition at 10 µg/mL value associated with the molecule N#C/C(=N\Nc1ccc(Br)cc1)c1nc2cc(Cl)ccc2o1
10 mm
